B1: ZNF649 (parent)
chain: EHERAHRGEKPHGCSLCGKAFYKR

variants of: B1; experiment: protein stability index of a GFP-peptide fusion (GPS, HEK-293T) (PSI 1-6); higher = more stable; conditions: c terminus: a fixed tail appended;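 also: lentivirally expressed fusions sorted by FACS into six bins by GFP to DsRed ratio, PSI derived from sequencing read proportions per bin multiplied by bin number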
Is protein stability index at least 2? Then satisfied. If not, not satisfied.

Please review the following examples before continuing.
E3C    satisfied
G13F    satisfied
C14H    satisfied
C17K    satisfied
S15R    satisfied
H6M    satisfied
Y22L    satisfied
G13C    not satisfied
H2M    satisfied
A20N    not satisfied

Does H2L have a reported protein stability index of at least 2? not satisfied

Does K19G have a reported protein stability index of at least 2? not satisfied

Does R24Y have a reported protein stability index of at least 2? satisfied

Does Y22D have a reported protein stability index of at least 2? satisfied

Does H12K have a reported protein stability index of at least 2? satisfied

Does H2T have a reported protein stability index of at least 2? satisfied

Does S15H have a reported protein stability index of at least 2? satisfied

Does E1I have a reported protein stability index of at least 2? not satisfied

Does R7L have a reported protein stability index of at least 2? not satisfied
